target: human melanocortin-4 receptor (recombinant hMC4-R) (human, UniProt P32245 1-332); test: cell-based or functional assay
Sequence (P32245 whole entry): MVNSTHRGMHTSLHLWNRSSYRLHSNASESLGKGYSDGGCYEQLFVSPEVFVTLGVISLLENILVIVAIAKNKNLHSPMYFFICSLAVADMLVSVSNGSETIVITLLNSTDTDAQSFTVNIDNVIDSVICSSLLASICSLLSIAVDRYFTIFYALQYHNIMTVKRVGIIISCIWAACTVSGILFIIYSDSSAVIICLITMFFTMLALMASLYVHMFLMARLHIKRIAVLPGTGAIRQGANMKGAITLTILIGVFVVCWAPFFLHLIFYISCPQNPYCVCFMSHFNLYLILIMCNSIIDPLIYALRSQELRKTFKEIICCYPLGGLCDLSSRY
Numbered stars: 1 amine (or outer) side, 2 acyl side, 3 side chain; on linkers, the order of the positions; unused ones are H or OH. Bridge positions count the residues as written; N and C are the ends. Square brackets hold non-standard residues; d marks the D form. Ser(Bzl) = O-benzyl-serine, O=C([C@H](COCc1ccccc1)N[*:1])[*:2]; Orn = NCCC[C@H](N)C(=O)O; Dab = NCC[C@H](N)C(=O)O
Ec50 (nM), cAMP for assorted binders
# number only, unit nM dropped from output

The following binders have reported results that may help.
[
  {
    "binder": "Ac-RD[Ser(Bzl)][dF]RWK-OH (lactam 2-7, also called Peptide Structure (Asp...Lys) in the rows of No. 17 and No. 48) [Asp...Lys analog of peptides No. 17 and No. 48: Ac-Arg-cyclo(Asp-Ser(Bzl)-D-Phe-Arg-Trp-Lys)-OH]",
    "observedResult": 5
  },
  {
    "binder": "Ac-REH[dF]RW[Orn]-OH (lactam 2-7) [Peptide No. 3: Ac-Arg-cyclo(Glu-His-D-Phe-Arg-Trp-Orn)-OH]",
    "observedResult": 0.7
  },
  {
    "binder": "Ac-RE[Dab][dF]RW[Orn]-NH2 (lactam 2-7) [Peptide No. 6: Ac-Arg-cyclo(Glu-Dab-D-Phe-Arg-Trp-Orn)-NH2]",
    "observedResult": 0.3
  },
  {
    "binder": "Ac-RD[Dab][dF]RWK-NH2 (lactam 2-7) [Asp...Lys analog of peptides No. 6 and No. 43: Ac-Arg-cyclo(Asp-Dab-D-Phe-Arg-Trp-Lys)-NH2]",
    "observedResult": 0.3
  },
  {
    "binder": "Ac-RDQ[dF]RWK-NH2 (lactam 2-7) [Asp...Lys analog of peptides No. 12 and No. 44: Ac-Arg-cyclo(Asp-Gln-D-Phe-Arg-Trp-Lys)-NH2]",
    "observedResult": 17
  }
]

Value of Ec50 (nM), cAMP reported for the binder Ac-RE[Orn](Ac)[dF]RW[Orn]-NH2 (lactam 2-7) [Peptide No. 33: Ac-Arg-cyclo(Glu-Orn(Acetyl)-D-Phe-Arg-Trp-Orn)-NH2] is 3

The measurements presented in this section are drawn from patent US20120077957A1.
